// reported pKd for each item listed
- TARGET_DESC: human RORγt ligand binding domain (RORγt LBD) (Homo sapiens (Human), UniProt P51449)
- Sequence (P51449 other isoform, or with tags, fused parts or gaps): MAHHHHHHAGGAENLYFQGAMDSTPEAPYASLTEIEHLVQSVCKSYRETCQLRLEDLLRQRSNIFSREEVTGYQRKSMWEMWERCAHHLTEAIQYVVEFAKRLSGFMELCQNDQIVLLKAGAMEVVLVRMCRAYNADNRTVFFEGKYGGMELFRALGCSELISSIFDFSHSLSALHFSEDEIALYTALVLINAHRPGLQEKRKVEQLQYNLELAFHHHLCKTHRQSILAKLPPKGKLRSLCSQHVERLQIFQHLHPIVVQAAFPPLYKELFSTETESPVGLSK
- ASSAY_DETAILS: RORγt ThermoFluor® assay (thermal shift binding)
- RECORDED_CONDITIONS: read-out: ThermoFluor® Assay, Kd
- Experimental: […] Bar-coded assay plates are robotically loaded onto a thermostatically controlled PCR-type thermal block and then heated at a typical ramp-rate of 1° C./min for all experiments. Fluorescence was measured by continuous illumination with UV light (Hamamatsu LC6) supplied via fiber optic and filtered through a band-pass filter (380-400 nm; >6 OD cutoff). […] Images were collected at each temperature, and the sum of the pixel intensity in a given area of the assay plate was recorded versus temperature. […]
pKd: −log10 of the molar value.
VALUE_KIND: pKd

* CC(C)[C@H](C)Nc1cc(C(F)F)c(-c2sc(C(=O)NCC(C)(C)O)nc2C(=O)N2CCC[C@@H]2C)cn1 | 8.80
* C[C@H]1CCCCN1C(=O)c1nc(C(=O)NCC(C)(C)O)sc1-c1cnc(N[C@H](C)C(F)(F)F)cc1C(F)(F)F | 9.21
* C[C@H](Nc1cc(C(F)(F)F)c(-c2sc(C(=O)N[C@@H]3COC[C@H]3O)nc2C(=O)N2C3CCC2CC3)cn1)C(F)(F)F | 8.49

====

- TARGET_DESC: human RORγt ligand binding domain (RORγt LBD) (Homo sapiens (Human), UniProt P51449)
- ASSAY_DETAILS: RORγt ThermoFluor® assay (thermal shift binding)
- RECORDED_CONDITIONS: read-out: ThermoFluor® Assay, Kd
pKd: −log10 of the molar value.
Cut-off 9 on pKd, inclusive. At or above means YES; below means NO.

* C[C@H]1CCCN1C(=O)c1nc(C(=O)N[C@@H]2CCC[C@H]2O)sc1-c1cnc(NC(C)(C)C)cc1C(F)(F)F | YES
* C[C@H](Nc1cc(C(F)(F)F)c(-c2sc(C(=O)NCC(C)(C)O)nc2C(=O)N2CCC[C@@H]2C)cn1)C1CCC1 (relative stereo) | NO
* Cc1c(-c2sc(C(=O)NCC(C)(C)O)nc2C(=O)N2CCC(F)CC2)cnc(NC2CCCCC2)c1F | NO
* C[C@H]1CC(F)(F)CN1C(=O)c1nc(C(=O)NCC(C)(C)O)sc1-c1cnc(NC2(C(F)(F)F)CCC2)cc1C(F)(F)F | YES

====

- TARGET_DESC: full-length human RORγt (Homo sapiens (Human), UniProt P51449)
- Sequence (P51449 other isoform, or with tags, fused parts or gaps): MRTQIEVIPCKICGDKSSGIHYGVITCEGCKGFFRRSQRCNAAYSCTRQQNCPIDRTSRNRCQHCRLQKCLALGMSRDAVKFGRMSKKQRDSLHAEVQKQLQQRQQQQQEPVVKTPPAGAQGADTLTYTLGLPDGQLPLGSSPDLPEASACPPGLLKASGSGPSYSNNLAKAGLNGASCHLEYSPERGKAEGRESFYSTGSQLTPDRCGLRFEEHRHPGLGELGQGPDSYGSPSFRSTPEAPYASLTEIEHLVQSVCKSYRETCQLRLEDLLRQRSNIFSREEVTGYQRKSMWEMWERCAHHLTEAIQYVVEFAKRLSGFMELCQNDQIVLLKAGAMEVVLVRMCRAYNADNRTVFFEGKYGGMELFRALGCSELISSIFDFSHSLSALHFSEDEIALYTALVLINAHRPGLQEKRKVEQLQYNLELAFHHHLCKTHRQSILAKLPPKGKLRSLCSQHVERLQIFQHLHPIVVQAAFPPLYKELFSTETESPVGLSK
- ASSAY_DETAILS: RORγt (full-length human) reporter assay, Conditions B or C
- Assay type: cell-based
- RECORDED_CONDITIONS: Conditions B or C; marked *: footnote not given
- Source text: RORγt (Full-Length Human) Reporter Assay: Cells used in this assay were transiently co-transfected with three different plasmids, one expressing the GAL4-DNA binding domain (DBD)-RORγt fusion protein under control of a CMV promoter (NH2-Gal4-DBD:RORC-COOH in pCMV-BD, Stratagene #211342), and two reporter plasmids—the firefly luciferase reporter under control of a GAL4 promoter (pFR-Luc 2×GAL4) and Renilla luciferase reporter under control of CMV promoter (pRL-CMV, Promega # E2261). […]
// reported RORγt (FL) Reporter Assay B or C, % inhibition (value marked *) for each item listed
VALUE_KIND: RORγt (FL) Reporter Assay B or C, % inhibition (value marked *)

• C[C@H](Nc1cc(C(F)(F)F)c(-c2sc(C(=O)N[C@@H](C)C(C)(C)O)nc2C(=O)N2CC(F)(F)C[C@@H]2C)cn1)C1CC1 [Example 202] = 98* %
• CC[C@@H](Nc1cc(C(F)F)c(-c2sc(C(=O)NCC(C)(C)O)nc2C(=O)N2CCC[C@@H]2C)cn1)C1CC1 (relative stereo) [Example 167] = 100* %
• C[C@H](Nc1cc(C(F)(F)F)c(-c2sc(C(=O)NCC(C)(C)O)nc2C(=O)N2C3CCC2CC3)cn1)C1CC1 [Example 51] = 101* %
• C[C@H]1CC(F)(F)CN1C(=O)c1nc(C(=O)NCC(C)(C)O)sc1-c1cnc(NC(C)(C)C)cc1C(F)F [Example 143] = 114* %
• CC[C@@H](Nc1cc(C(F)F)c(-c2sc(C(=O)N[C@@H]3COC[C@H]3O)nc2C(=O)N2CCC[C@@H]2C)cn1)C(F)(F)F [Example 204] = 105* %
• C[C@H](Nc1cc(C(F)(F)F)c(-c2sc(C(=O)N[C@@H]3CCC[C@@H]3O)nc2C(=O)N2CC(F)(F)C[C@@H]2C)cn1)C1CC1 [Example 201] = 102* %
• C[C@H]1CCCCN1C(=O)c1nc(C(=O)NCC(C)(C)O)sc1-c1cnc(NC2(C)CCC2)cc1C(F)(F)F [Example 81] = 105* %
• C[C@H](Nc1cc(C(F)F)c(-c2sc(C(=O)N[C@@H]3C[C@H]3O)nc2C(=O)N2CCC[C@@H]2C)cn1)C(F)(F)F (single isomer, unassigned) [Example 157] = 89* %
• C[C@H]1CC(F)(F)CN1C(=O)c1nc(C(=O)NC2COCC2O)sc1-c1cnc(NC2(C)CCC2)cc1C(F)(F)F (stereo partly shown) [Example 182] = 99* %
• CC[C@H](Nc1cc(C(F)F)c(-c2sc(C(=O)N[C@H](C)C(C)(C)O)nc2C(=O)N2CCCC[C@@H]2C)cn1)C(F)(F)F [Example 241] = 103* %
• CC[C@H](Nc1cc(C(F)(F)F)c(-c2sc(C(=O)N[C@@H]3COC[C@H]3O)nc2C(=O)N2C3CCC2CC3)cn1)C(F)(F)F [Example 155] = 103* %
• C[C@H]1CC(F)(F)CN1C(=O)c1nc(C(=O)NCC(C)(C)O)sc1-c1cnc(NC(C)(C)C2CC2)cc1C(F)(F)F [Example 107] = 111* %
• C[C@H]1CC(F)(F)CN1C(=O)c1nc(C(=O)NCC(C)(C)O)sc1-c1cnc(NC2(C)CCC2)cc1C(F)F [Example 168] = 106* %
